Each entry below lists one item and its recorded combination Emax value.
System: LoVo (Colorectal Carcinoma)
Assay: combination Emax (second highest fraction inhibited in the dose matrix, 72 h); higher = more inhibition; extreme values may be limits of the assay
measurementType: combination Emax

[[record]]
compound = "COc1nnc2ccc(N3CCC(c4ccc(OCCN5CCN(C)C(=O)[C@H]5C)cc4)CC3)nn12 [AZD5153] + C=CCn1c(=O)c2cnc(Nc3ccc(N4CCN(C)CC4)cc3)nc2n1-c1cccc(C(C)(C)O)n1 [AZD1775] (first compound max 1 µM, partner max 1 µM)"
reported = 0.656

[[record]]
compound = "CC(=O)c1c(C)c2cnc(Nc3ccc(N4CCNCC4)cn3)nc2n(C2CCCC2)c1=O [Palbociclib] + Cc1c2c(nn1C)CSCc1cc(n(C)n1)CSc1cc(c3ccccc3c1)OCCCc1c(C(=O)O)n(C)c3c-2c(Cl)ccc13 [AZD5991] (first compound max 10 µM, 7x7, partner max 1 µM)"
reported = 0.557

[[record]]
compound = "Cc1nc(-c2cn3c(n2)-c2ccc(-c4cnn(C(C)(C)C(N)=O)c4)cc2OCC3)n(C(C)C)n1 [Taselisib] + O=C(Nc1ccc2[nH]nc(-c3ccncc3)c2c1)[C@@H]1CCN(CC(=O)N2CCN(c3ccc(-c4ncccn4)cc3)CC2)C1 [SCH772984] (first compound max 10 µM, 7x7, partner max 5 µM)"
reported = 0.738


* * *

Each entry below lists one item and its recorded Bliss excess value.
System: HDLM-2 (Hodgkin's Lymphoma)
Assay: Bliss excess, mean over the matrix (fraction); higher = more synergy
measurementType: Bliss excess

[[record]]
compound = "COc1cccc(OCCCN)c1-c1cc(Nc2cnc(C#N)cn2)n[nH]1 [Prexasertib] + CN(C)CCCOc1ccc(-c2ccc3ncc4c(c3c2)n(C2CCOCC2)c(=O)n4C)cn1 [AZD0156] (first compound max 1 µM, 7x7, partner max 1 µM)"
measurementtype = "Bliss excess"
reported = -0.0727

[[record]]
compound = "C=CCn1c(=O)c2cnc(Nc3ccc(N4CCN(C)CC4)cc3)nc2n1-c1cccc(C(C)(C)O)n1 [AZD1775] + C[C@@H]1COCCN1C2=NC(=NC(=C2)C3(CC3)[S@](=N)(=O)C)C4=C5C=CNC5=NC=C4 [AZD6738] (first compound max 1 µM, partner max 10 µM)"
measurementtype = "Bliss excess"
reported = -0.0511

[[record]]
compound = "CC1(C)CCC(CN2CCN(c3ccc(C(=O)NS(=O)(=O)c4ccc(NCC5CCOCC5)c([N+](=O)[O-])c4)c(Oc4cnc5[nH]ccc5c4)c3)CC2)=C(c2ccc(Cl)cc2)C1 [Venetoclax] + C[C@@H](Nc1cc(F)cc(F)c1)c1cc(C(=O)N(C)C)cc2c(=O)cc(N3CCOCC3)oc12 [AZD8186] (first compound max 1 µM, 7x7, partner max 3 µM)"
measurementtype = "Bliss excess"
reported = 0.122

[[record]]
compound = "COc1cccc(OCCCN)c1-c1cc(Nc2cnc(C#N)cn2)n[nH]1 [Prexasertib] + C[C@@H]1COCCN1C2=NC(=NC(=C2)C3(CC3)[S@](=N)(=O)C)C4=C5C=CNC5=NC=C4 [AZD6738] (first compound max 1 µM, 7x7, partner max 10 µM)"
measurementtype = "Bliss excess"
reported = -0.0669


* * *

System: 8305C (Thyroid Gland Carcinoma)
Assay: Bliss excess, mean over the matrix (fraction); higher = more synergy
Each entry below lists one item and its recorded Bliss excess value.
measurementType: Bliss excess

[[record]]
compound = "Cc1c2c(nn1C)CSCc1cc(n(C)n1)CSc1cc(c3ccccc3c1)OCCCc1c(C(=O)O)n(C)c3c-2c(Cl)ccc13 [AZD5991] + CC(=O)O[C@H]1C(=O)[C@@]2(C)[C@H]([C@H](OC(=O)c3ccccc3)[C@]3(O)C[C@H](OC(=O)[C@H](O)[C@@H](NC(=O)c4ccccc4)c4ccccc4)C(C)=C1C3(C)C)[C@]1(OC(C)=O)CO[C@@H]1C[C@@H]2O [Paclitaxel] (first compound max 1 µM, 7x7, partner max 3 µM)"
measurementtype = "Bliss excess"
reported = -0.0118

[[record]]
compound = "Cn1cnc2c(F)c(Nc3ccc(Br)cc3Cl)c(C(=O)NOCCO)cc21 [Selumetinib] + C[C@@H]1COCCN1C2=NC(=NC(=C2)C3(CC3)[S@](=N)(=O)C)C4=C5C=CNC5=NC=C4 [AZD6738] (first compound max 10 µM, 7x7, partner max 10 µM)"
measurementtype = "Bliss excess"
reported = -0.0238

[[record]]
compound = "C=CCn1c(=O)c2cnc(Nc3ccc(N4CCN(C)CC4)cc3)nc2n1-c1cccc(C(C)(C)O)n1 [AZD1775] + O=C(c1cc(Cc2n[nH]c(=O)c3ccccc23)ccc1F)N1CCN(C(=O)C2CC2)CC1 [Olaparib] (first compound max 1 µM, partner max 10 µM)"
measurementtype = "Bliss excess"
reported = -0.0762


* * *

Test system: NCI-H69 (Small Cell Lung Carcinoma)
Experiment: Bliss excess, mean over the matrix (fraction); higher = more synergy
measurementType: Bliss excess

[[record]]
compound = "O=C(c1cc(Cc2n[nH]c(=O)c3ccccc23)ccc1F)N1CCN(C(=O)C2CC2)CC1 [Olaparib] + Cc1c2c(nn1C)CSCc1cc(n(C)n1)CSc1cc(c3ccccc3c1)OCCCc1c(C(=O)O)n(C)c3c-2c(Cl)ccc13 [AZD5991] (first compound max 10 µM, 7x7, partner max 1 µM)"
reported = 0.0008

[[record]]
compound = "Cc1c2c(nn1C)CSCc1cc(n(C)n1)CSc1cc(c3ccccc3c1)OCCCc1c(C(=O)O)n(C)c3c-2c(Cl)ccc13 [AZD5991] + C[C@@H]1COCCN1C2=NC(=NC(=C2)C3(CC3)[S@](=N)(=O)C)C4=C5C=CNC5=NC=C4 [AZD6738] (first compound max 1 µM, 7x7, partner max 10 µM)"
reported = -0.0477


* * *

System: MHH-PREB-1 (B-Cell Non-Hodgkin's Lymphoma)
Assay: Bliss excess, mean over the matrix (fraction); higher = more synergy
measurementType: Bliss excess

[[record]]
compound = "CN(CCO)CC[C@H](CSc1ccccc1)Nc1ccc(S(=O)(=O)NC(=O)c2ccc(N3CCC([C@@H](O)c4ccccc4-c4ccc(Cl)cc4)CC3)cc2)cc1S(=O)(=O)C(F)(F)F [AZD4320] + Cn1cnc2c(F)c(Nc3ccc(Br)cc3Cl)c(C(=O)NOCCO)cc21 [Selumetinib] (first compound max 1 µM, 7x7, partner max 3 µM)"
reported = 0.0272

[[record]]
compound = "CC(=O)c1c(C)c2cnc(Nc3ccc(N4CCNCC4)cn3)nc2n(C2CCCC2)c1=O [Palbociclib] + CN(CC[C@H](CSC1=CC=CC=C1)NC2=C(C=C(C=C2)S(=O)(=O)NC(=O)C3=CC=C(C=C3)N4CCC(CC4)[C@H](C5=CC=CC=C5C6=CC=C(C=C6)Cl)O)S(=O)(=O)C(F)(F)F)CCO [AZD4320] (first compound max 10 µM, 7x7, partner max 1 µM)"
reported = -0.041

[[record]]
compound = "CN(CCO)CC[C@H](CSc1ccccc1)Nc1ccc(S(=O)(=O)NC(=O)c2ccc(N3CCC([C@@H](O)c4ccccc4-c4ccc(Cl)cc4)CC3)cc2)cc1S(=O)(=O)C(F)(F)F [AZD4320] + C[C@@H](Nc1cc(F)cc(F)c1)c1cc(C(=O)N(C)C)cc2c(=O)cc(N3CCOCC3)oc12 [AZD8186] (first compound max 1 µM, 7x7, partner max 3 µM)"
reported = 0.0355


* * *

Each entry below lists one item and its recorded combination Emax value.
System: HARA (Squamous Cell Lung Carcinoma)
Assay: combination Emax (second highest fraction inhibited in the dose matrix, 72 h); higher = more inhibition; extreme values may be limits of the assay
measurementType: combination Emax

[[record]]
molecule = "C[C@@H]1COCCN1c1cc(C2([S@](C)(=N)=O)CC2)nc(-c2ccnc3[nH]ccc23)n1 [AZD6738] + Nc1ccn([C@@H]2O[C@H](CO)[C@@H](O)C2(F)F)c(=O)n1 [Gemcitabine] (first compound max 10 µM, 7x7, partner max 0.3 µM)"
reported = 0.927

[[record]]
molecule = "CS(=O)(=O)CCNCc1ccc(-c2ccc3ncnc(Nc4ccc(OCc5cccc(F)c5)c(Cl)c4)c3c2)o1 [Lapatinib] + Cn1cnc2c(F)c(Nc3ccc(Br)cc3Cl)c(C(=O)NOCCO)cc21 [Selumetinib] (first compound max 10 µM, 7x7, partner max 10 µM)"
reported = 0.76

[[record]]
molecule = "CC1(C)CCC(CN2CCN(c3ccc(C(=O)NS(=O)(=O)c4ccc(NCC5CCOCC5)c([N+](=O)[O-])c4)c(Oc4cnc5[nH]ccc5c4)c3)CC2)=C(c2ccc(Cl)cc2)C1 [Venetoclax] + C=CCn1c(=O)c2cnc(Nc3ccc(N4CCN(C)CC4)cc3)nc2n1-c1cccc(C(C)(C)O)n1 [AZD1775] (first compound max 1 µM, partner max 1 µM)"
reported = 0.899


* * *

Test system: SIMA (Neuroblastoma)
Assay: combination Emax (second highest fraction inhibited in the dose matrix, 72 h); higher = more inhibition; extreme values may be limits of the assay
Each entry below lists one item and its recorded combination Emax value.
measurementType: combination Emax

[[record]]
compound = "CN(CCO)CC[C@H](CSc1ccccc1)Nc1ccc(S(=O)(=O)NC(=O)c2ccc(N3CCC([C@@H](O)c4ccccc4-c4ccc(Cl)cc4)CC3)cc2)cc1S(=O)(=O)C(F)(F)F [AZD4320] + Cc1cc2ncnn2cc1Nc1ncc2c(n1)n(C1CCOCC1)c(=O)n2C [AZD7648] (first compound max 1 µM, 7x7, partner max 10 µM)"
testsystem = "SIMA (Neuroblastoma)"
reported = 0.862

[[record]]
compound = "COc1cccc(OCCCN)c1-c1cc(Nc2cnc(C#N)cn2)n[nH]1 [Prexasertib] + C=CCn1c(=O)c2cnc(Nc3ccc(N4CCN(C)CC4)cc3)nc2n1-c1cccc(C(C)(C)O)n1 [AZD1775] (first compound max 1 µM, partner max 1 µM)"
testsystem = "SIMA (Neuroblastoma)"
reported = 0.993

[[record]]
compound = "CN(C)CCCOc1ccc(-c2ccc3ncc4c(c3c2)n(C2CCOCC2)c(=O)n4C)cn1 [AZD0156] + O=C(c1cc(Cc2n[nH]c(=O)c3ccccc23)ccc1F)N1CCN(C(=O)C2CC2)CC1 [Olaparib] (first compound max 3 µM, partner max 3 µM)"
testsystem = "SIMA (Neuroblastoma)"
reported = 0.386

[[record]]
compound = "CCN(CCO)CCCOc1ccc2c(Nc3cc(CC(=O)Nc4cccc(F)c4)[nH]n3)ncnc2c1 [AZD2811] + O=C(c1cc(Cc2n[nH]c(=O)c3ccccc23)ccc1F)N1CCN(C(=O)C2CC2)CC1 [Olaparib] (first compound max 1 µM, 7x7, partner max 10 µM)"
testsystem = "SIMA (Neuroblastoma)"
reported = 0.213

[[record]]
compound = "CN(CCO)CC[C@H](CSc1ccccc1)Nc1ccc(S(=O)(=O)NC(=O)c2ccc(N3CCC([C@@H](O)c4ccccc4-c4ccc(Cl)cc4)CC3)cc2)cc1S(=O)(=O)C(F)(F)F [AZD4320] + CCN(CCO)CCCOc1ccc2c(Nc3cc(CC(=O)Nc4cccc(F)c4)[nH]n3)ncnc2c1 [AZD2811] (first compound max 1 µM, 7x7, partner max 1 µM)"
testsystem = "SIMA (Neuroblastoma)"
reported = 0.971

[[record]]
compound = "Cc1cc2ncnn2cc1Nc1ncc2c(n1)n(C1CCOCC1)c(=O)n2C [AZD7648] + CN(C)CCCOc1ccc(-c2ccc3ncc4c(c3c2)n(C2CCOCC2)c(=O)n4C)cn1 [AZD0156] (first compound max 10 µM, 7x7, partner max 1 µM)"
testsystem = "SIMA (Neuroblastoma)"
reported = 0.312

[[record]]
compound = "CCN(CCO)CCCOc1ccc2c(Nc3cc(CC(=O)Nc4cccc(F)c4)[nH]n3)ncnc2c1 [AZD2811] + C[C@@H]1COCCN1C2=NC(=NC(=C2)C3(CC3)[S@](=N)(=O)C)C4=C5C=CNC5=NC=C4 [AZD6738] (first compound max 1 µM, 7x7, partner max 10 µM)"
testsystem = "SIMA (Neuroblastoma)"
reported = 0.766


These entries and their values trace back to the supplement of paper PMC11061612.
